Assay: in vivo
No end group written: not given here.
Experimental Endpoint: half-life

Req: I'd like to know its half-life. The sequence in question is VGDGGLFEKKL [Peptide P6, VGDGGLFEKKL]
Resp: > 6 h
